Assay: Bioavailability in oral administration in mice
Type: in vivo, ddY-strain male mice
Conditions: mouse; mice, oral 50 mg/kg, serum, 1-4 hrs.; read-out: AUC
Given measured AUC at 4 h, output criterion met if it is greater than or equal to 30000 ng·h/mL and criterion not met if not.

Request: In plain terms: is recorded AUC at 4 h at least 30000 ng·h/mL for CC1COc2c(-n3ccnc3)c(F)cc3c(=O)c(C(=O)O)cn1c23 (centres unmarked) ?
Result: criterion not met

---

Assay: in vivo
Conditions: mouse, in vivo, po; mice, one week, Weil method
Assay Readout: LD50 at 168 h

Request: Value lookup for LD50 at 168 h; key = CCn1cc(C(=O)O)c(=O)c2cc(F)c(-n3ccnc3)c(F)c21
Result: > 4000 mg/kg
